Measured Ratio Ki accompanies every entry in the list below.
- Species on record: Homo sapiens
- assay-name: Selectivity ratio of Ki for 5-HT2A receptor (unknown origin) to Ki for 5-HT2B receptor (unknown origin)
quantity: Ratio Ki

{"compound": "COc1cc2c(cc1OC)-c1c(OC)c(OC3CCCCC3)cc3c1[C@H](C2)N(C)CC3", "observed": 5.8}
{"compound": "COc1cc2c(cc1OC1CCCCC1)C[C@H]1c3c(cc(OC)c(OC)c3-2)CCN1C", "observed": 10.8}
{"compound": "CCCCOc1cc2c(cc1OC)-c1c(OC)c(OC)cc3c1[C@H](C2)N(C)CC3", "observed": 4.8}
{"compound": "COc1cc2c(cc1OC)-c1c(OC)c(OCc3ccccc3)cc3c1[C@H](C2)N(C)CC3", "observed": 0.5}
{"compound": "CCCCC(C)Oc1cc2c(cc1OC)-c1c(OC)c(OC)cc3c1[C@H](C2)N(C)CC3 (some centres undefined)", "observed": 13.5}
{"compound": "CCCCCOc1cc2c3c(c1OC)-c1cc(OC)c(OC)cc1C[C@@H]3N(C)CC2", "observed": 2.9}
{"compound": "C=CCOc1cc2c3c(c1OC)-c1cc(OC)c(OC)cc1C[C@@H]3N(C)CC2", "observed": 6.3}
{"compound": "COc1cc2c(cc1OC)-c1c(OC)c(OC)cc3c1[C@H](C2)N(C)CC3 [GLAUCINE]", "observed": 8.1}
{"compound": "CCC(C)Oc1cc2c(cc1OC)-c1c(OC)c(OC)cc3c1[C@H](C2)N(C)CC3 (some centres undefined)", "observed": 17.1}

Entry source: ChEMBL document CHEMBL5137112
